Biological target: Serine/threonine-protein phosphatase 5 (Homo sapiens) (UniProt P53041)
Sequence (P53041 whole entry, looked up): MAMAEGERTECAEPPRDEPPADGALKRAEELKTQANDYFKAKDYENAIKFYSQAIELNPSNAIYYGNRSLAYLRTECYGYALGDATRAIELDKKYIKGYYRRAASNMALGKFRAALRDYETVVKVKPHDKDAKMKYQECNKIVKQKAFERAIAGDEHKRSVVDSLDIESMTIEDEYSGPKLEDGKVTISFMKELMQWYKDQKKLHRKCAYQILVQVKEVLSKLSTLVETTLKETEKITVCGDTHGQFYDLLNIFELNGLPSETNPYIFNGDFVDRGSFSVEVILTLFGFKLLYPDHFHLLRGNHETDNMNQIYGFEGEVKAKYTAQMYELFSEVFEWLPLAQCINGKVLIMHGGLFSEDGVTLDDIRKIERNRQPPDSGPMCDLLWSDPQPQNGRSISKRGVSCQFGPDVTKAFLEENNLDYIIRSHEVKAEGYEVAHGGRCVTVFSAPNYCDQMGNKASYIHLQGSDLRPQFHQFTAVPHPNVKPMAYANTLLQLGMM
Assay: PP5 phosphatase inhibitors, primary screen, biochemical, fluorescence (AID 1987);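 note: 0% = DMSO only and 100% = 100 µM cantharidin control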
Details: purified PP5c, OMFP substrate fluorescence; at 6.7 µM; hits give high values
Among all 320,000 compounds or so, about 560 (0.17%) were called active. This excerpt belongs to a sample that is enriched for actives.
MEASURED_PROPERTY: inhibition (%)
I only need the number, in %, no unit after it.

Worked cases, answers included:
Q. What measured inhibition goes with CN(c1ccc(OCC(=O)O)cc1)S(=O)(=O)c1ccc2ccccc2c1 ?
A. 1

Q. Given COc1ccc(NC(=O)CNC(=O)Cc2ccccc2)cc1OC , state its recorded inhibition.
A. -2.46

Next:
Q. What value of inhibition has been recorded for this entry: CCOC(=O)Nc1ccc2c(c1)N(C(=O)CN1CCN3CCCC3C1)c1ccccc1CC2 (configuration not stated)
A. 10.7

Q. Given O=C(NN1C(=O)C2C3C=CC(O3)C2C1=O)c1ccncc1 (configuration not stated) , state its recorded inhibition.
A. -0.72

Q. Quick one: inhibition of C=CCOc1ccc(/C=C/C(=O)OCC(=O)NCC2CCCO2)cc1 (configuration not stated) ?
A. -0.48

====

Measured inhibition of individual entries
Molecular target: Serine/threonine-protein phosphatase 5 (Homo sapiens) (UniProt P53041)
Experiment: PP5 phosphatase inhibitors, primary screen, biochemical, fluorescence (AID 1987);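 note: 0% = DMSO only and 100% = 100 µM cantharidin control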
Settings: purified PP5c, OMFP substrate fluorescence; at 6.7 µM; hits give high values
Screen size: about 320,000 compounds; about 560 (0.17%) were called active. The entries come from a sample that favours actives as a whole.
Report the figure in % without appending any unit label.

Check out these entries, answers already filled in.
Q. What does the record list as inhibition for Cc1c(CCC(=O)N[C@@H](CC(C)C)C(=O)O)c(=O)oc2c(C)c3oc4c(c3cc12)CCCC4 ?
A. -1.14

Q. Name the reported inhibition value associated with the compound Cc1cc(C)n(-c2nnc(N3CCN(c4ccccc4)CC3)nn2)n1
A. -0.74

Q. Look up inhibition for this compound: O=C(C1=C[C@H](C2CC2)C[C@H](OCc2ccc(CO)cc2)O1)N1CCN(Cc2ccccc2)CC1
A. 1.72

Q. Record request: inhibition value, item CCCCn1c(N)c(N(CCC(C)C)C(=O)COC(=O)c2cccnc2OCC)c(=O)[nH]c1=O
A. 0.18

Others:
Q. Endpoint output: inhibition of CCNc1nc(NC(C)C)nc(N2CC(=O)N(CC(=O)OCC)C2=N)n1 . Value?
A. -0.1

Q. Form field: reported inhibition of COc1ccc(S(=O)(=O)NNC(=O)Nc2ccc(C)cc2)c(OC)c1
A. 0.5

Q. Recorded inhibition for CN(C(=O)CN1C(=O)/C(=C/c2ccc(Cl)cc2)SC1=S)C1CCS(=O)(=O)C1 (centres undefined) , please?
A. 2.22

Q. Given the entry O=C(NCc1ccccc1)C1=C[C@@H](c2ccc(C(F)(F)F)cc2)C[C@@H](OCc2ccc(CO)cc2)O1 , report its measured inhibition.
A. 7.35

Q. Name the recorded inhibition for c1ccc(C[C@H]2CNCCN2CCC23CC4CC(CC(C4)C2)C3)cc1 .
A. 1.23

====

Target: Serine/threonine-protein phosphatase 5 (Homo sapiens)
Experiment: PP5 phosphatase inhibitors, primary screen, biochemical, fluorescence (AID 1987);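 note: 0% = DMSO only and 100% = 100 µM cantharidin control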
Conditions: purified PP5c, OMFP substrate fluorescence; at 6.7 µM; hits give high values
The campaign covered roughly 320,000 compounds. About 560 (0.17%) were called active. Only a selection was taken, and actives are over-represented in it overall.
MEASURED_PROPERTY: inhibition (%)
Give just the number in %; leave the unit off.

Q. For the molecule shown here, COc1ccc(-n2nnnc2SCc2nc(N)nc(N3CCOCC3)n2)cc1 , give the reported inhibition.
A. 0.58

# next molecule below
Q. # input molecule: O=C(NCc1cccc(Cl)c1)C1=CC=CN2CCS(=O)(=O)N=C12 ; wanted: its inhibition
A. 0.61
